Below, each of the binders is paired with its reported pKd value.
study_system: T1, human TROP2 protein (Sino Biological, #10428-H08H) (human, UniProt P09758 27-274)
T1 construct: bought protein; also called human Trop2 protein antigen (His tag); not shown: His tag
T1 sequence (looked up): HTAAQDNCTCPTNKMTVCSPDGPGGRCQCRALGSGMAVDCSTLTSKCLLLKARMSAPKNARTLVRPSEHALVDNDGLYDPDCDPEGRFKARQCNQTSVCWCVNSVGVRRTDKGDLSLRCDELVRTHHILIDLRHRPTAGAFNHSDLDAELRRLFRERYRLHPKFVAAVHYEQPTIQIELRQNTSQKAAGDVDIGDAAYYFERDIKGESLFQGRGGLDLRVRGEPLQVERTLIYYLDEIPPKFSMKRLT
test_method_notes: BLI, Octet RED96, AHC sensor
On this scale, pKd is minus log10 of a concentration expressed in M (mol/L).

These solved cases illustrate the format of a correct answer.
binder	pKd
PR001163 (antibody, human IgG1, kappa, V domains shown, fully human IgG1/kappa; also called antibody No. (24)) VH: QVQLVESGGDVVQPGRSLRLSCEASGFTFSHYGMHWVRQAPGKGLEWVAVVWYDGIKKYYVESVKGRFTISRDNSKNTLYLQMNRLRAEDTAVYYCARDGGFGELNYYGLDVWGQGTTVTVSS VL: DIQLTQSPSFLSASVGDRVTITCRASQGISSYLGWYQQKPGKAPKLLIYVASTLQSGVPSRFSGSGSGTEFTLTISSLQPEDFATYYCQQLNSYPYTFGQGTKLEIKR	9.10
PR001133 (antibody, human IgG1, kappa, V domains shown, fully human IgG1/kappa; also called antibody No. (5)) VH: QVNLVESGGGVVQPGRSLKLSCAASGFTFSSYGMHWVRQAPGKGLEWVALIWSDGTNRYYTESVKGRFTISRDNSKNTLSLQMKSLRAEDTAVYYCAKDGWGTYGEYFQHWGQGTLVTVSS VL: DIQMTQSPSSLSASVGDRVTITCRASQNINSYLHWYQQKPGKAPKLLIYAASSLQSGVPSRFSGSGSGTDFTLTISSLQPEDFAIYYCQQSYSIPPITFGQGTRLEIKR	8.96

Query: Looking for the measured pKd of PR001155 (antibody, human IgG1, kappa, V domains shown, fully human IgG1/kappa; also called antibody No. (18)) VH: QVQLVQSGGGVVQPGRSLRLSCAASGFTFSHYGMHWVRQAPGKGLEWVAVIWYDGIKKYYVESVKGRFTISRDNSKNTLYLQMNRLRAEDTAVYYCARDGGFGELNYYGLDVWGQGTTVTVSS VL: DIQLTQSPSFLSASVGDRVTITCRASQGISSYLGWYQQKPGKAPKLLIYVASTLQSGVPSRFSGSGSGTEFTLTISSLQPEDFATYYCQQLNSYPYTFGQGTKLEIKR , can you help?
Response: 8.74
